# System: DU-145 prostate
# Assay remarks: NCI tumour cell line growth inhibition, 48 h
Readout name: TGI (µM)
Unit µM implied. Number only.

Some compounds with recorded TGI:
{"Compound": "CC(C)=CCC[C@@H](C)c1c(O)c(O)c(C)c2nc3ccccc3nc12", "Reading unit": "µM", "TGI": 10.3}
{"Compound": "C(=C/c1ccc2nc(-c3ccc(/C=C/C=N/NC4=NCCCN4)cc3)cn2c1)/C=N/NC1=NCCCN1", "Reading unit": "µM", "TGI": 41.6}
{"Compound": "Brc1ccc2c(c1)[C@H]1CCc3c([nH]c4ccccc34)[C@H]1N2", "Reading unit": "µM", "TGI": 25.5}
{"Compound": "CCSc1sc(-c2ccc(C)cc2)nc1[P+](c1ccccc1)(c1ccccc1)c1ccccc1", "Reading unit": "µM", "TGI": 1.35}
{"Compound": "COc1ccc(CNCCN2C(=O)c3ccc4c5c(ccc(c35)C2=O)C(=O)N(CCNCc2ccc(OC)cc2)C4=O)cc1", "Reading unit": "µM", "TGI": 1.7}
{"Compound": "C=CCn1c(-c2ccc(N=NNc3ccc(-c4n[nH]c(=S)n4CC=C)cc3)cc2)n[nH]c1=S", "Reading unit": "µM", "TGI": 16}

TGI for O=C(NCCc1ccccc1)C(c1csc2ccccc12)N(C(=O)CCl)c1ccc(-c2cnco2)cc1 (centres undefined) is 2.3
